Target: MAD2L2 (Homo sapiens)
Sequence (Q9UI95 whole entry): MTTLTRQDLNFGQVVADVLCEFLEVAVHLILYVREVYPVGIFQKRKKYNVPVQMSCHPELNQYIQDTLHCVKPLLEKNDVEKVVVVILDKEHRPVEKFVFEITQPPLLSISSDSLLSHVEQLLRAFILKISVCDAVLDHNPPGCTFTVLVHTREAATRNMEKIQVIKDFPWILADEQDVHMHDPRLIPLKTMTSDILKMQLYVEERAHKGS
measuredMetric: pKd
Kindly note that pKd refers to -log10 of the concentration in mol/L and answer with the value alone.

In: Return the recorded pKd value; entry: "Cc1oc(-c2ccco2)nc1CC(=O)N[C@@H](C(=O)O)c1ccccc1"
Out: 4.35
